- Read-out: MYC, MYC (gene 4609)
- ASSAY_REMARKS: LTEA_HepaRG_MYC: Life Technologies and Expression Analysis (LTEA) Assay for MYC using HepaRG (AID 2283518)
- EXPERIMENTAL_CONDITIONS: mRNA level, 48 h; actives raise or lower the signal
- Procedure: LTEA_HepaRG is a cell based, multiplexed-readout assay that uses HepaRG, a human liver cell line, with measurements taken at 48 hours after chemical dosing on a 96-well plate.LTEA_HepaRG_MYC is one of 102 assay component(s) measured in the LTEA HepaRG cell culture assay. It is a marker of Cell proliferation, survival, death.Data from the assay component LTEA_HepaRG_MYC was analyzed into 1 endpoint. […]
Calls of active or inactive are those of the source. Rule for the calls: active = hit-call score of the fitted dose curve at least 0.9, where 1 is the maximum; inactive = score below 0.9.
ATTRIBUTE_MEASURED: AC50

Sample answers from the record:
> print(dat)
                                   compound  reported.value
1   CCOP(=S)(OCC)Oc1ccc2c(C)c(Cl)c(=O)oc2c1  50 µM (active)
2  CCOP(=O)(SC(C)CC)N1CCSC1=O (configuration not stated)        inactive
3  O=C(O)c1cc(Oc2ccc(C(F)(F)F)cc2Cl)ccc1[N+](=O)[O-]        inactive
4  CC(C1CC1)C(O)(Cn1cncn1)c1ccc(Cl)cc1 (configuration not stated)        inactive
5  CCCOc1nn(C(=O)NS(=O)(=O)c2ccccc2C(=O)OC)c(=O)n1C        inactive

Lookup: Please report the measured AC50 for CSc1nnc(C(C)(C)C)c(=O)n1N
Found: inactive

Lookup: Please report the measured AC50 for CNc1cnn(-c2cccc(C(F)(F)F)c2)c(=O)c1Cl
Found: 19.6 µM (active)

Lookup: Please report the measured AC50 for CCc1cccc(CC)c1N(COC)C(=O)CCl
Found: inactive

Lookup: Please report the measured AC50 for C#CC(C)(C)NC(=O)c1cc(Cl)cc(Cl)c1
Found: inactive

Lookup: Please report the measured AC50 for CCCOCC(=Nc1ccc(Cl)cc1C(F)(F)F)n1ccnc1
Found: 50 µM (active)

Lookup: Please report the measured AC50 for CCOP(=S)(OCC)Oc1ccc([N+](=O)[O-])cc1
Found: inactive

Lookup: Please report the measured AC50 for CSC1=N[C@@](C)(c2ccccc2)C(=O)N1Nc1ccccc1
Found: 31.2 µM (active)

* * *

- ASSAY_REMARKS: CCTE_Padilla_ZF_144hpf_TERATOSCORE: (Legacy) CCTE's 144 Hour Post-fertilization zebrafish Assay Teratoscore, Padilla Lab (AID 2283679)
Active and inactive are the calls of the source. Rule for the calls: active = hit-call score of the fitted dose curve at least 0.9, where 1 is the maximum; inactive = score below 0.9.
Can you answer with just one of these options? Y (active), N (inactive)

Consider the following illustrative entries.
> print(dat)
                                   compound  assigned.class
1     CNc1cnn(-c2cccc(C(F)(F)F)c2)c(=O)c1Cl               N
2  CCOC(=O)COc1cc(-c2nn(C)c(OC(F)F)c2Cl)c(F)cc1Cl               Y
3  CSC1=N[C@@](C)(c2ccccc2)C(=O)N1Nc1ccccc1               Y
4  C#CCC1=C(C)C(OC(=O)C2C(C=C(C)C)C2(C)C)CC1=O (stereo unspecified)               Y

Lookup: Hi team, can someone confirm the assay call for O=[N+]([O-])c1cc(C(F)(F)F)c(Cl)c([N+](=O)[O-])c1Nc1ncc(C(F)(F)F)cc1Cl ?
Found: Y

Lookup: Hi team, can someone confirm the assay call for O=c1ccc(=O)[nH][nH]1 ?
Found: N

* * *

- ASSAY_REMARKS: CCTE_Shafer_MEA_dev_AB: CCTE's Alamar Blue Assay for Cytotoxicity in the Neural Network Formation Assay, Shafer Lab (AID 2284083);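 note: resazurin reduction fluorescence as viability of cultured neurons; twelve days of exposure from plating with re-dosing on DIV 5 and 9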
Records with an inconclusive call do not appear. Calls of active or inactive are those of the source. Rule for the calls: active = hit-call score of the fitted dose curve at least 0.9, where 1 is the maximum; inconclusive = response in the unintended direction; inactive = score below 0.9.
Can you answer with just one of these options? 1 (yes) for active, 0 (no) for inactive

Consider the following illustrative entries.
MOLECULE	ASSIGNED_CLASS
CCCSP(=O)(OCC)Oc1ccc(Br)cc1Cl (centres undefined)	0 (no)
CCOP(=S)(OCC)SCCSCC	0 (no)
CCOP(=S)(OCC)Oc1ccc2c(C)c(Cl)c(=O)oc2c1	1 (yes)

Lookup: Hi team, can someone confirm the assay call for CC[C@H](C)[C@H]1O[C@]2(C=C[C@@H]1C)C[C@@H]1C[C@@H](C/C=C(\C)[C@@H](O[C@H]3C[C@H](OC)[C@@H](O[C@H]4C[C@H](OC)[C@@H](NC)[C@H](C)O4)[C@H](C)O3)[C@@H](C)/C=C/C=C3\CO[C@@H]4[C@H](O)C(C)=C[C@@H](C(=O)O1)[C@]34O)O2 ?
Found: 1 (yes)

* * *

- Read-out: Pselectin, SELP (gene 6403)
- ASSAY_REMARKS: BSK_4H_Pselectin: BioMAP Diversity Plus: 4H Assay for Pselectin Biomarker Activity (AID 2283026)
- EXPERIMENTAL_CONDITIONS: primary human endothelial cells (HUVEC); actives raise or lower the signal
Active and inactive are the calls of the source. How the source made its calls: active means hit-call score of the fitted dose curve at least 0.9, where 1 is the maximum; inactive means score below 0.9.
Can you answer with just one of these options? active, inactive

Consider the following illustrative entries.
> print(dat)
           compound  assigned.class
1  CNC(=O)ON=C(C)SC        inactive
2         N#CSCSC#N          active

Lookup: Hi team, can someone confirm the assay call for CCc1cccc(C)c1N(C(=O)CCl)C(C)COC (stereo unspecified) ?
Found: active

Lookup: Hi team, can someone confirm the assay call for COc1ccc(C(=CC(=O)N2CCOCC2)c2ccc(Cl)cc2)cc1OC ?
Found: inactive

Lookup: Hi team, can someone confirm the assay call for CCC(CC)Nc1c([N+](=O)[O-])cc(C)c(C)c1[N+](=O)[O-] ?
Found: active

Lookup: Hi team, can someone confirm the assay call for C[N+]1(C)CCCCC1 ?
Found: inactive

* * *

- TESTED_ON: human Opioid Receptor Mu (Opiate Mu), OPRM1 (gene 4988) (UniProt P35372)
- Sequence (P35372 whole entry, looked up): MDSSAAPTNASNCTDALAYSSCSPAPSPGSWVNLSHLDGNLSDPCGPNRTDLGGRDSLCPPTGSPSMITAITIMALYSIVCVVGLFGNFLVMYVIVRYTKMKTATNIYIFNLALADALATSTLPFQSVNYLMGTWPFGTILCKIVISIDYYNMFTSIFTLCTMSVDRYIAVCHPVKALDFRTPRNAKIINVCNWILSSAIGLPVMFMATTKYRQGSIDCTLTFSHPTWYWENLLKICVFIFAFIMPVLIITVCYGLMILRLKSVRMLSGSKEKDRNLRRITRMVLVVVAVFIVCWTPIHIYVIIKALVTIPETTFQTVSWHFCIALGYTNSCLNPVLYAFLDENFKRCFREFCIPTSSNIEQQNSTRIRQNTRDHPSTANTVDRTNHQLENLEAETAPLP
- ASSAY_REMARKS: NVS_GPCR_hOpiate_mu: NovaScreen (NVS) G Protein-Coupled Receptor Assay for human Opioid Receptor Mu (Opiate Mu) (AID 2283290);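 note: hits lower bound tracer signal versus DMSO meaning displacement of the ligand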
Records with an inconclusive call do not appear. Active and inactive are the calls of the source. How the source made its calls: active means hit-call score of the fitted dose curve at least 0.9, where 1 is the maximum; inconclusive means response in the unintended direction; inactive means score below 0.9.
Can you answer with just one of these options? t (active), f (inactive)

> print(dat)
                                   molecule  assigned.class
1  CCCSP(=O)(OCC)Oc1ccc(Br)cc1Cl (stereo not given)               t
2   C[Si](Cn1cncn1)(c1ccc(F)cc1)c1ccc(F)cc1               t
3  CCc1cccc(C)c1N(C(=O)CCl)C(C)COC (stereo not given)               t

Lookup: Hi team, can someone confirm the assay call for S=C1NCCN1 ?
Found: f

Lookup: Hi team, can someone confirm the assay call for CCc1cccc(CC)c1N(COC)C(=O)CCl ?
Found: t

* * *

- TESTED_ON: human Adenosine A2a Receptor (AdoRA2a), ADORA2A (gene 135)
- ASSAY_REMARKS: NVS_GPCR_hAdoRA2a: NovaScreen (NVS) G Protein-Coupled Receptor Assay for human Adenosine A2a Receptor (AdoRA2a) (AID 2283256)
Inconclusive results are not listed. Calls of active or inactive are those of the source. Rule for the calls: active = hit-call score of the fitted dose curve at least 0.9, where 1 is the maximum; inconclusive = response in the unintended direction; inactive = score below 0.9.
Can you answer with just one of these options? active, inactive

Consider the following illustrative entries.
> print(dat)
                                   compound                                 tested.on  assigned.class
1  O=[N+]([O-])c1cc(C(F)(F)F)c(Cl)c([N+](=O)[O-])c1Nc1ncc(C(F)(F)F)cc1Cl  human Adenosine A2a Receptor (AdoRA2a), ADORA2A (gene 135)          active
2  O=C(O)c1cc(Oc2ccc(C(F)(F)F)cc2Cl)ccc1[N+](=O)[O-]  human Adenosine A2a Receptor (AdoRA2a), ADORA2A (gene 135)          active
3               Cc1cc(C2CC2)nc(Nc2ccccc2)n1  human Adenosine A2a Receptor (AdoRA2a), ADORA2A (gene 135)          active
4  CCOC(=O)CC(SP(=O)(OC)OC)C(=O)OCC (stereo not given)  human Adenosine A2a Receptor (AdoRA2a), ADORA2A (gene 135)        inactive

Shift focus to the following entry.
Lookup: Hi team, can someone confirm the assay call for CSc1nc(NC(C)C)nc(NC(C)C)n1 ?
Found: active

* * *

- ASSAY_REMARKS: ATG_MRE_CIS: Attagene CIS-FACTORIAL HepG2 Assay for human Metal Responsive Element (MRE) (AID 2282954)
- EXPERIMENTAL_CONDITIONS: HepG2 MRE cis-reporter transcription, Attagene multiplex; actives raise or lower the signal
Active and inactive are the calls of the source. The calls were made as follows: active = hit-call score of the fitted dose curve at least 0.9, where 1 is the maximum; inactive = score below 0.9.
ATTRIBUTE_MEASURED: AC50

Sample answers from the record:
> print(dat)
                                        smi  attribute.measured      reported.value
1  C=C(C)[C@H]1Cc2c(ccc3c2O[C@@H]2COc4cc(OC)c(OC)cc4[C@@H]2C3=O)O1                AC50  0.0899 µM (active)
2  CON=C(C(=O)OC)c1ccccc1CON=C(C)c1cccc(C(F)(F)F)c1                AC50    68.9 µM (active)
3               CNC(=O)Oc1cccc2c1OC(C)(C)O2                AC50    67.7 µM (active)
4          CCOP(=S)(OCC)Oc1cc(C)nc(C(C)C)n1                AC50            inactive

Lookup: Please report the measured AC50 for CCCCN(CC)c1c([N+](=O)[O-])cc(C(F)(F)F)cc1[N+](=O)[O-]
Found: inactive

Lookup: Please report the measured AC50 for CN1COCN(Cc2cnc(Cl)s2)C1=N[N+](=O)[O-]
Found: inactive

Lookup: Please report the measured AC50 for CCOP(=S)(OCC)SCCSCC
Found: inactive

Lookup: Please report the measured AC50 for S=C1NCCN1
Found: inactive
